molecular target: HPK1 (MAP4K1) (Homo sapiens, UniProt Q92918); test: FRET Assay for HPK1 (MAP4K1): one step binding assay, displacement of labeled tracer; details: 10 μM compound; FRET ratio 665/620, percent of control
Sequence (Q92918 whole entry): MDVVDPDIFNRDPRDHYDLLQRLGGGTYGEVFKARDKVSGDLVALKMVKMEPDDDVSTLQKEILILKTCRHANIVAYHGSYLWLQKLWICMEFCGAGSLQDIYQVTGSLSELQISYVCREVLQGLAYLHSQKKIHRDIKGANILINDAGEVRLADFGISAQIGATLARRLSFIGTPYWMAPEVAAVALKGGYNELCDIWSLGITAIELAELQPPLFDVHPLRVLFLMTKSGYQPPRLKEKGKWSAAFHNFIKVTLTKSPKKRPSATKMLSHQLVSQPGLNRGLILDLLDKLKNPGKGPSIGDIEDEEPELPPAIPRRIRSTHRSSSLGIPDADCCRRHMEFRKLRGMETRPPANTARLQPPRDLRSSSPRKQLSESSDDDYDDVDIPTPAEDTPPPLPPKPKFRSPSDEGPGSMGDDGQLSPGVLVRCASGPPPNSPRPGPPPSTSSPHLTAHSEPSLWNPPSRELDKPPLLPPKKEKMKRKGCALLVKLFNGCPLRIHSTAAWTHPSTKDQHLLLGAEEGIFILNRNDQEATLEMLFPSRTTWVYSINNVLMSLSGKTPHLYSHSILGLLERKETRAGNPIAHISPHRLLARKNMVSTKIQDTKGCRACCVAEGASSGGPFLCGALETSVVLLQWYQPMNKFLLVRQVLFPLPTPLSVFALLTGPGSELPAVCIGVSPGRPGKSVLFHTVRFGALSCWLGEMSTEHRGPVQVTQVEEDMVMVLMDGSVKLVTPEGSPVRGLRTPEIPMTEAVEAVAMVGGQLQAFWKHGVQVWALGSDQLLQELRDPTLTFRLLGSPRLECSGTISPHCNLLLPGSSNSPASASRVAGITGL
endpoint: inhibition at 10 µM

Any idea what its inhibition at 10 µM is? The compound is COc1ccncc1-c1cc2c(cn1)NC(=O)/C2=C(/C)Nc1ccn(C(C)(C)C#N)n1 75.7%

What does the record list as inhibition at 10 µM for CCn1nc(N/C(C)=C2\C(=O)Nc3cnc(-c4c(C)cccc4F)cc32)cc1C ? 74.4%

Given the compound CN/C(=C1\C(=O)Nc2ccc(-c3c(F)cccc3OC)cc21)c1ccccc1 , what is its reported inhibition at 10 µM? 84%

Which inhibition at 10 µM is listed for COc1ccncc1-c1cc2c(cn1)NC(=O)/C2=C(/C)Nc1cnn(C)c1 ? 87.8%

Fill in: inhibition at 10 µM of C/C(Nc1cnn(C)c1)=C1/C(=O)Nc2ccc(-c3cnccc3C)nc21 is ___ 94.7%

Field request: inhibition at 10 µM | item: C/C(Nc1ccn(C)n1)=C1/C(=O)Nc2cnc(-c3cccnc3C)cc21 92.9%

Using the record for C/C(Nc1cc(C2CC2)n(C)n1)=C1/C(=O)Nc2cnc(-c3cnccc3C)cc21 , report its inhibition at 10 µM. 70.4%

Sample C/C(Nc1cc(C)n([C@H](C)C#N)n1)=C1/C(=O)Nc2cnc(-c3cnccc3C)cc21 — what was its inhibition at 10 µM? 71.1%

----------
Observed IC50, system HPK1 (MAP4K1) (Homo sapiens, UniProt Q92918).

Sample answers from the record:
Checklist item: IC50 tested on HPK1 (MAP4K1) (Homo sapiens, UniProt Q92918), entry C/C(Nc1cnn(CC[C@H](C)O)c1)=C1/C(=O)Nc2cnc(-c3cnccc3C)cc21 , value? < 50 nM

Test system HPK1 (MAP4K1) (Homo sapiens, UniProt Q92918); read-out IC50; what value for C/C(Nc1cnn(CC2CC2)c1)=C1/C(=O)Nc2cnc(-c3cnccc3C)cc21 ? < 50 nM

Hello, I am looking for reported IC50 with HPK1 (MAP4K1) (Homo sapiens, UniProt Q92918) for C/C(Nc1cc(C)n(C)n1)=C1/C(=O)Nc2ccc(-c3cnccc3C)cc21 . Could you help? < 50 nM

Notebook: pull reported IC50 for HPK1 (MAP4K1) (Homo sapiens, UniProt Q92918), entry C/C(Nc1cc(C)n(C)n1)=C1/C(=O)Nc2cnc(-c3cnccc3C)cc21 < 50 nM

Lab note: need IC50 for C/C(Nc1ccc(N2CCN(C3COC3)CC2)nc1)=C1/C(=O)Nc2ccc(F)cc21 on HPK1 (MAP4K1) (Homo sapiens, UniProt Q92918), anyone have it? 100 to 500 nM

Lab note: next compound to report on.
Request: IC50, test system HPK1 (MAP4K1) (Homo sapiens, UniProt Q92918), entry COc1cccc(F)c1-c1cc2c(cn1)NC(=O)/C2=C(/C)Nc1ccc(N2CCNCC2)nc1 < 50 nM

----------
biological target: HPK1 (MAP4K1) (Homo sapiens, UniProt Q92918); test: FRET Assay for HPK1 (MAP4K1): one step binding assay, displacement of labeled tracer; conditions: 10 μM compound; FRET ratio 665/620, percent of control
// values below are reported inhibition at 10 µM
Give me the value, and tack the unit on after it.

For orientation, consider the following solved cases.
Entry under review: COc1cccc(F)c1-c1cc2c(cn1)NC(=O)/C2=C(/C)Nc1ccn(C)n1 . Reported inhibition at 10 µM? 89.4%

Look at this compound and give its reported inhibition at 10 µM. COc1cccc(F)c1-c1cc2c(cn1)NC(=O)/C2=C(/C)Nc1ccn(CC(C)(C)O)n1 84.6%

---
// lookup inhibition at 10 µM for C/C(Nc1cc(C)n(CC(C)(C)O)n1)=C1/C(=O)Nc2cnc(-c3c(C)cccc3F)cc21 71.9%

Entry under review: C/C(Nc1cc(C)n(CC(F)F)n1)=C1/C(=O)Nc2cnc(-c3c(C)cccc3F)cc21 . Reported inhibition at 10 µM? 73.6%

Given the entry C/C(Nc1cc(C)n(CCC(C)(C)O)n1)=C1/C(=O)Nc2cnc(-c3c(C)cccc3F)cc21 , report its measured inhibition at 10 µM. 83%

----------
biological target: HPK1 (MAP4K1) (Homo sapiens, UniProt Q92918); experiment: FRET Assay for HPK1 (MAP4K1): one step binding assay, displacement of labeled tracer; conditions: 1 μM compound; FRET ratio 665/620, percent of control
Measured inhibition at 1 µM values are reported for all entries that follow.

Observe how each entry below is paired with its result.
Quick check: inhibition at 1 µM of C/C(Nc1cc(C)n(CC(C)(C)O)n1)=C1/C(=O)Nc2cnc(-c3c(C)cccc3F)cc21 ? 70.7%

GET /values?readout=inhibition at 1 µM&item= COc1cc2c(cc1N/C(C)=C1\C(=O)Nc3ccc(-c4c(F)cccc4OC)cc31)CNCC2 48%

Consider the compound shown here: C/C(Nc1cc(C)n(C(C)C)n1)=C1/C(=O)Nc2cnc(-c3cnccc3C)cc21 What is its recorded inhibition at 1 µM? 76.9%

Looking for the measured inhibition at 1 µM of COc1cccc(F)c1-c1ccc2c(c1)/C(=C(\C)Nc1ccc(N(C)C(=O)CN3CCN(C)CC3)cc1)C(=O)N2 , can you help? 82.4%

For C/C(Nc1ncc(C)s1)=C1/C(=O)Nc2cnc(-c3c(C)cccc3F)cc21 , what is its reported inhibition at 1 µM? 73.3%

***
Report inhibition at 1 µM for C/C(Nc1cc(C)n([C@@H](C)C#N)n1)=C1/C(=O)Nc2cnc(-c3c(C)cccc3F)cc21 please. 79.7%

Any idea what inhibition at 1 µM was measured for CC/C(Nc1cnn(C)c1)=C1/C(=O)Nc2ccc(-c3c(F)cccc3OC)cc21 ? 85.7%

Quick check: inhibition at 1 µM of C/C(Nc1ccn(CC[C@@H](C)O)n1)=C1/C(=O)Nc2cnc(-c3cnccc3C)cc21 ? 71.4%

----------
molecular target: HPK1 (MAP4K1) (Homo sapiens, UniProt Q92918); assay: FRET Assay for HPK1 (MAP4K1): one step binding assay, displacement of labeled tracer; settings: 1 μM compound; FRET ratio 665/620, percent of control
endpoint: inhibition at 1 µM (%)
Form entry: value (%) — number only.

Check out these entries, answers already filled in.
Query for HPK1 (MAP4K1) (Homo sapiens, UniProt Q92918): what inhibition at 1 µM does the record show for CC(=O)N1CC(n2ccc(N/C(C)=C3\C(=O)Nc4cnc(-c5cnccc5C)cc43)n2)C1 ? 2.17

Notebook entry, HPK1 (MAP4K1) (Homo sapiens, UniProt Q92918) assay: inhibition at 1 µM of C/C(Nc1ccc(N2CCOCC2)nc1)=C1/C(=O)Nc2cnc(-c3cnccc3C)cc21 = ? 93.5

Tell me reported inhibition at 1 µM for C/C(Nc1cc(C2CC2)n(C)n1)=C1/C(=O)Nc2cnc(-c3cnccc3C)cc21 , tested with HPK1 (MAP4K1) (Homo sapiens, UniProt Q92918). 74.3

# returns recorded inhibition at 1 µM (system: HPK1 (MAP4K1) (Homo sapiens, UniProt Q92918)) for COc1cccc(F)c1-c1cc2c(cn1)NC(=O)/C2=C(/C)Nc1cnn(C(C)(C)C#N)c1 70.6

Recorded inhibition at 1 µM for C/C(Nc1ccn(C)n1)=C1/C(=O)Nc2ccc(-c3cnccc3C)nc21 with HPK1 (MAP4K1) (Homo sapiens, UniProt Q92918), please? 89.8

***
Record COc1cccc(F)c1-c1cc2c(cn1)NC(=O)/C2=C(/C)Nc1cnn([C@@H](C)C#N)c1 : what is its inhibition at 1 µM with HPK1 (MAP4K1) (Homo sapiens, UniProt Q92918)? 79.2

// map C/C(Nc1cc(C)nn1C)=C1/C(=O)Nc2cnc(-c3cnccc3C)cc21 to recorded inhibition at 1 µM (system: HPK1 (MAP4K1) (Homo sapiens, UniProt Q92918)) 81

Requested read-out inhibition at 1 µM, target or system HPK1 (MAP4K1) (Homo sapiens, UniProt Q92918), entry C/C(Nc1cc(C)n(CC(C)(C)O)n1)=C1/C(=O)Nc2cnc(-c3cnccc3C)cc21 76.8

Please tell me: inhibition at 1 µM of C/C(Nc1cnn(C(C)(C)C#N)c1)=C1/C(=O)Nc2cnc(-c3c(C)noc3C)cc21 , system HPK1 (MAP4K1) (Homo sapiens, UniProt Q92918)? 74.3

----------
target: HPK1 (MAP4K1) (Homo sapiens, UniProt Q92918); test: FRET Assay for HPK1 (MAP4K1): one step binding assay, displacement of labeled tracer; settings: 1 μM compound; FRET ratio 665/620, percent of control
endpoint: inhibition at 1 µM (%)
Give the number; % is assumed, so skip it.

Example compounds with recorded inhibition at 1 µM:
What reported inhibition at 1 µM corresponds to C/C(Nc1cnn(CC2(O)CC2)c1)=C1/C(=O)Nc2cnc(-c3cnccc3C)cc21 on HPK1 (MAP4K1) (Homo sapiens, UniProt Q92918)? 55.1

Test system HPK1 (MAP4K1) (Homo sapiens, UniProt Q92918); read-out inhibition at 1 µM; what value for C/C(Nc1cnn(C)c1)=C1/C(=O)Nc2cnc(-c3c(C)noc3C)cc21 ? 78

Query inhibition at 1 µM on HPK1 (MAP4K1) (Homo sapiens, UniProt Q92918) for C/C(Nc1cc(C)n([C@@H](C)C#N)n1)=C1/C(=O)Nc2cnc(-c3cnccc3C)cc21 69.7

More entries:
Item COc1cccc(F)c1-c1ccc2c(c1)/C(=C(\C)Nc1ccc(N3CCNCC3)cc1)C(=O)N2 with HPK1 (MAP4K1) (Homo sapiens, UniProt Q92918) - inhibition at 1 µM? 84.8

Form entry - test system: HPK1 (MAP4K1) (Homo sapiens, UniProt Q92918); read-out: inhibition at 1 µM; compound: C/C(Nc1ccn(C[C@@H](C)O)n1)=C1/C(=O)Nc2cnc(-c3cnccc3C)cc21 82.3

Observed inhibition at 1 µM on HPK1 (MAP4K1) (Homo sapiens, UniProt Q92918) for C/C(Nc1ccn(C(C)C)n1)=C1/C(=O)Nc2cnc(-c3cnccc3C)cc21 , please. 70.1

Report inhibition at 1 µM for C/C(Nc1cnn(C)c1)=C1/C(=O)Nc2cnc(-c3cc(C#N)ccc3C)cc21 tested on HPK1 (MAP4K1) (Homo sapiens, UniProt Q92918). 66.4

Fill in the recorded inhibition at 1 µM for this compound, with HPK1 (MAP4K1) (Homo sapiens, UniProt Q92918) as test system: COc1cccc(F)c1-c1cc2c(cn1)NC(=O)/C2=C(/C)Nc1cnn(C2COC2)c1 88.4

inhibition at 1 µM of CCn1nc(N/C(C)=C2\C(=O)Nc3cnc(-c4c(C)cccc4F)cc32)cc1C on HPK1 (MAP4K1) (Homo sapiens, UniProt Q92918)? 63.1
